Assay: Solubility of butixocort propionate in propellants and propellant/ethanol blends
Format: physicochemical
Details: propellant 134a, 7.5% ethanol, organic solvent or mixture, 7.5 weight % ethanol, 20°C; Table 2
readout: solubility at 168 h (µg/mL)
Give just the numeric value; µg/mL need not be written.

Determine its reported solubility at 168 h: CCCC(=O)O[C@]1(C(=O)CSC(=O)CC)CC[C@H]2[C@@H]3CCC4=CC(=O)CC[C@]4(C)[C@H]3[C@@H](O)C[C@@]21C [Butixocort propionate]
6960

----------
Test: Solubility of butixocort propionate in propellants and propellant/ethanol blends
Format: physicochemical
Conditions: propellant 134a, 2.5% ethanol, organic solvent or mixture, 2.5 weight % ethanol, 20°C; Table 2
Description: Solubility of butixocort propionate in P134a, P227, and blends thereof with ethanol, was determined as follows: Drug and the selected propellant system were combined and agitated for a period of seven days at a selected temperature to afford a saturated solution. The solid was filtered off and the supernatant was weighed. The propellant was removed by evaporation and the drug was reconstituted quantitatively. […]
readout: solubility at 168 h (µg/mL)
Give just the numeric value; µg/mL need not be written.

Determine its reported solubility at 168 h: CCCC(=O)O[C@]1(C(=O)CSC(=O)CC)CC[C@H]2[C@@H]3CCC4=CC(=O)CC[C@]4(C)[C@H]3[C@@H](O)C[C@@]21C [Butixocort propionate]
1760

----------
Experiment: Solubility of butixocort propionate in propellants and propellant/ethanol blends
Format: physicochemical
Conditions: propellant 134a, organic solvent or mixture, 30 °C; Table 1; average of three determinations
readout: solubility at 168 h (µg/mL)
Give just the numeric value; µg/mL need not be written.

Determine its reported solubility at 168 h: CCCC(=O)O[C@]1(C(=O)CSC(=O)CC)CC[C@H]2[C@@H]3CCC4=CC(=O)CC[C@]4(C)[C@H]3[C@@H](O)C[C@@]21C [Butixocort propionate]
300

----------
Assay: Solubility of butixocort propionate in propellants and propellant/ethanol blends
Type: physicochemical
Conditions: propellant 227, organic solvent or mixture, Propellant 227, 30 °C; Table 1; average of three determinations
readout: solubility at 168 h (µg/mL)
Give just the numeric value; µg/mL need not be written.

Determine its reported solubility at 168 h: CCCC(=O)O[C@]1(C(=O)CSC(=O)CC)CC[C@H]2[C@@H]3CCC4=CC(=O)CC[C@]4(C)[C@H]3[C@@H](O)C[C@@]21C [Butixocort propionate]
306

----------
Assay: Solubility of butixocort propionate in propellants and propellant/ethanol blends
Assay type: physicochemical
Conditions: propellant 134a, 0% ethanol, organic solvent or mixture, 0 weight % ethanol, 20°C; Table 2; average of three determinations
readout: solubility at 168 h (µg/mL)
Give just the numeric value; µg/mL need not be written.

Determine its reported solubility at 168 h: CCCC(=O)O[C@]1(C(=O)CSC(=O)CC)CC[C@H]2[C@@H]3CCC4=CC(=O)CC[C@]4(C)[C@H]3[C@@H](O)C[C@@]21C [Butixocort propionate]
300

----------
Assay: Solubility of butixocort propionate in propellants and propellant/ethanol blends
Type: physicochemical
Settings: propellant 227, organic solvent or mixture, Propellant 227, 4 °C; Table 1; average of three determinations
readout: solubility at 168 h (µg/mL)
Give just the numeric value; µg/mL need not be written.

Determine its reported solubility at 168 h: CCCC(=O)O[C@]1(C(=O)CSC(=O)CC)CC[C@H]2[C@@H]3CCC4=CC(=O)CC[C@]4(C)[C@H]3[C@@H](O)C[C@@]21C [Butixocort propionate]
261
